system: Frog (Rana pipiens) Skin; assay type: cell-based; conditions: cyclic analogues
Positions of bridges follow the written chain, without caps; N, C: chain ends. Non-standard residues stand in square brackets, D forms with d. Residues, ends and D or L forms follow the SMILES beside them. Nle = CCCC[C@H](N)C(=O)O
Measurement kind: Residual Activity Frog (prolonged action)

>  <Compound>
CCCC[C@H](NC(C)=O)C(=O)N[C@H]1CC(=O)NC[C@@H](C(N)=O)NC(=O)[C@H](Cc2c[nH]c3ccccc23)NC(=O)[C@H](CCCNC(=N)N)NC(=O)[C@@H](Cc2ccccc2)NC(=O)[C@H](Cc2c[nH]cn2)NC1=O

>  <Result>
p(-)

$$$$
>  <Compound>
CCCC[C@H](NC(C)=O)C(=O)N[C@H]1CCC(=O)NCCCC[C@@H](C(N)=O)NC(=O)[C@H](Cc2c[nH]c3ccccc23)NC(=O)[C@H](CCCNC(=N)N)NC(=O)[C@@H](Cc2ccccc2)NC(=O)[C@H](Cc2c[nH]cn2)NC1=O

>  <Result>
p(+)

$$$$
>  <Compound>
CCCC[C@H](NC(=O)[C@H](CO)NC(=O)[C@H](Cc1ccc(O)cc1)NC(=O)[C@H](CO)NC(C)=O)C(=O)N[C@H]1CC(=O)NCCCC[C@@H](C(N)=O)NC(=O)[C@H](Cc2c[nH]c3ccccc23)NC(=O)[C@H](CCCNC(=N)N)NC(=O)[C@@H](Cc2ccccc2)NC(=O)[C@H](Cc2c[nH]cn2)NC1=O [Analogue 22] (Ac-SYS[Nle]DH[dF]RWK-NH2; lactam 5-10)

>  <Result>
p(+)

$$$$
>  <Compound>
CCCC[C@H](NC(=O)[C@H](CO)NC(=O)[C@H](Cc1ccc(O)cc1)NC(C)=O)C(=O)N[C@H]1CC(=O)NCCCC[C@@H](C(N)=O)NC(=O)[C@H](Cc2c[nH]c3ccccc23)NC(=O)[C@H](CCCNC(=N)N)NC(=O)[C@@H](Cc2ccccc2)NC(=O)[C@H](Cc2c[nH]cn2)NC1=O [Analogue 23] (Ac-YS[Nle]DH[dF]RWK-NH2; lactam 4-9)

>  <Result>
p(+)

$$$$
